The reader will find reported pKi values listed item by item below.
Biological target: Cannabinoid receptor 2 (Mus musculus, UniProt P47936)
Sequence (P47936 whole entry): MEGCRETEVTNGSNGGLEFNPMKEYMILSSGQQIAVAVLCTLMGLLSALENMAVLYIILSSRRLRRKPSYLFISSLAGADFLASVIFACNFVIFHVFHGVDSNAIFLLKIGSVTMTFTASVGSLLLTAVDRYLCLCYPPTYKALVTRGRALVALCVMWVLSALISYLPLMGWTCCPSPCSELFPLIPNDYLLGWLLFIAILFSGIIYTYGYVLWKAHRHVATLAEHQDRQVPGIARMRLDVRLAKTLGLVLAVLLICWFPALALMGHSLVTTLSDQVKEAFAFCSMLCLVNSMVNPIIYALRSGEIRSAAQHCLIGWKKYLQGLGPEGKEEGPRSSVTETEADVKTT
To interpret pKi, take it as minus log10 of a concentration measured in moles per litre.

Take a look at these entries with their results.
{"columns": ["compound", "measured_target", "pKi"],
 "data": [
  ["CCCCCCC(C)(C)c1ccc([C@H]2C[C@@H](O)CC[C@@H]2CCCO)c(O)c1 [CP-56667 [(+)-AC],XV]", "Cannabinoid receptor 2 (Mus musculus, UniProt P47936)", 9.14],
  ["CCCn1c(C)c(C(=O)c2cccc3ccccc23)c2ccccc21", "Cannabinoid receptor 2 (Mus musculus, UniProt P47936)", 6.37],
  ["CCCCCCC(C)(C)c1ccc2c(c1)OC(C)(C)[C@@H]1CC=C(CO)C[C@@H]21", "Cannabinoid receptor 2 (Mus musculus, UniProt P47936)", 9.14],
  ["CCCCCc1cc(O)c2c(c1)OC(C)(C)[C@@H]1CCC(C)=CC21 (stereo partly specified) [Tetrahydrocannabinol]", "Cannabinoid receptor 2 (Mus musculus, UniProt P47936)", 7.56]
]}

Request: # query: pKi | item CCCCC/C=C\C/C=C\C/C=C\C/C=C\CCCC(=O)NCCO [Arachidonoyl ethanolamide] | system: Cannabinoid receptor 2 (Mus musculus, UniProt P47936)
Result: 5.83

Request: GET /values?readout=pKi&system=Cannabinoid receptor 2 (Mus musculus, UniProt P47936)&item= Cc1c(C(=O)c2cccc3ccccc23)c2cccc3c2n1[C@H](CN1CCOCC1)CO3
Result: 8.02
